Sourced from patent US8476197B2

Settings: pH 2.3
Short version: Log P at least 3 is t, less is f.

COMPOUND	ASSIGNED_LABEL
CCOC(=O)C(C#N)=C(NC(C)C(C)C)c1cccnc1-c1ccc(OC)cc1 (stereo not shown)	t
CON(C)C(=O)C(C#N)=C(NC(C)C(C)C)c1cccnc1Cl (stereo not shown)	f
COC(=O)C(C#N)=C(NC1CCSC1)c1cccnc1Cl (stereo not shown)	f
C=CCONC(=O)C(C#N)=C(NC(C)C(C)C)c1cccnc1Cl (stereo not shown)	f
COC(=O)C(C#N)=C(Nc1ccccc1OC)c1cccnc1Cl	f
CCOC(=O)C(C#N)=C(NC(C)C(C)C)c1cccnc1Cl (stereo not shown)	t
CCOC(=O)C(C#N)=C(NC(C)C(C)C)c1cccnc1-c1ccc(F)cc1 (stereo not shown)	t
CONC(=O)C(C#N)=C(Nc1ccccc1SC)c1cccnc1Cl	f
COC(=O)C(C#N)=C(NCc1ccc(Cl)nc1)c1cccnc1Cl	f
CCOC(=O)C(C#N)=C(NC(C)C)c1cccnc1Cl	f
